Target: Phosphatidylinositol 4,5-bisphosphate 3-kinase catalytic subunit alpha isoform (Homo sapiens, UniProt P42336)
Sequence (P42336 whole entry, canonical isoform): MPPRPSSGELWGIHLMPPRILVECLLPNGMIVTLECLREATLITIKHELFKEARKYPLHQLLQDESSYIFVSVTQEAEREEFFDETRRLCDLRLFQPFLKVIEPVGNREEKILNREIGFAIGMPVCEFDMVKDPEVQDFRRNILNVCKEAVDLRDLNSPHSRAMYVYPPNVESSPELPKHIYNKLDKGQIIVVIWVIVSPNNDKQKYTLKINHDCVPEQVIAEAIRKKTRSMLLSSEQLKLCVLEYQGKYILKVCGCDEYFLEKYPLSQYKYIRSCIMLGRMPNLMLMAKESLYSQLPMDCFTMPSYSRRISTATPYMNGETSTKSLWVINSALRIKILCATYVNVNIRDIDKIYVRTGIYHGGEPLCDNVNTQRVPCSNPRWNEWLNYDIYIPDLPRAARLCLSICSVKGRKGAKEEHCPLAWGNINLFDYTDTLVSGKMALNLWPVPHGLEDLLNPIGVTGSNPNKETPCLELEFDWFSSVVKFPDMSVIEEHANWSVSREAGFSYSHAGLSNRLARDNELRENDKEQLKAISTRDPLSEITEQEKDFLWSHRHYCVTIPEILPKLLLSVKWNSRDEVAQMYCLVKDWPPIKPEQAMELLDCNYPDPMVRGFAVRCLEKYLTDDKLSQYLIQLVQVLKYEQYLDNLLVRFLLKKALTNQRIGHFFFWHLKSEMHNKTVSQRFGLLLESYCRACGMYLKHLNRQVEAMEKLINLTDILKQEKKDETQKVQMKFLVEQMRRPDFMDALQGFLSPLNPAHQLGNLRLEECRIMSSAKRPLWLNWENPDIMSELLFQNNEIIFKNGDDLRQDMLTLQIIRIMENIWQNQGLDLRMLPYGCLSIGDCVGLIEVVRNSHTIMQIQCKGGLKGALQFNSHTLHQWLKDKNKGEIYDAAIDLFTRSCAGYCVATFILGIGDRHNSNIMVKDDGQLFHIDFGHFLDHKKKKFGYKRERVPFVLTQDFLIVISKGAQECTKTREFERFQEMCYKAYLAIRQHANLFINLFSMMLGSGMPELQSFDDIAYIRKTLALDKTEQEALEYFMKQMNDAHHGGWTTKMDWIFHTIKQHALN
Experiment: Inhibition of p110alpha
// returns no (0) unless IC50 is strictly below 400 nM, in which case yes (1)

Determine if CC(C)n1nc(C#Cc2cccc(O)c2)c2c(N)ncnc21 shows IC50 strictly lower than 400 nM. yes (1)

Determine if CN1CCN(c2nc3ccccc3cc2Cn2nc(-c3ccc4nc(N)sc4c3)c3c(N)ncnc32)CC1 shows IC50 strictly lower than 400 nM. yes (1)

Further cases:
Determine if CC(C)n1nc(C#Cc2cccnc2)c2c(N)ncnc21 shows IC50 strictly lower than 400 nM. yes (1)

Determine if COc1ccccc1-n1c(SCC(=O)Nc2ccc3nccnc3c2)nc2c(c1=O)CCCC2 shows IC50 strictly lower than 400 nM. no (0)

Determine if CC(=O)Nc1nc2ccc(-c3nn(Cc4cc5ccccc5nc4N4CCN(C)CC4)c4ncnc(N)c34)cc2s1 shows IC50 strictly lower than 400 nM. no (0)
